Ref: patent US9028845B2

system: PBMCs; test: Human PBMC proliferation assay (3H-thymidine incorporation); type: cell-based; settings: Donor 146, 2 μg/ml, Experiment A
Strand notation (5' to 3'): a small letter for the sugar, then the base; units joined by * are phosphorothioate-linked, units joined directly phosphodiester-linked; [ ] holds rarer units or linkages, { } end groups; capitals alone tell only the bases. d = 2'-deoxy (DNA)

substance	scale unit	cpm1
5′-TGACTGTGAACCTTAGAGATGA-3′ (SEQ ID NO: 3) (dT*dG*dA*dC*dT*dG*dT*dG*dA*dA*dC*dC*dT*dT*dA*dG*dA*dG*dA*dT*dG*dA) [Compound P-7, negative control, reference compound]	cpm	7620
5′-TCGTCGA-3′- C3-5′-ACGTTCG-3′-C3-5′-AGATGAT-3′ [Compound C-9]	cpm	55348
5′-TCGTCGA-3′-HEG-5′-TCGTCGA-3′-HEG-5′-TCGTCGA-3′ [Compound C-21]	cpm	30338

----------
The entries below come with measured IFN-α values attached.
system: human PBMCs; test: Human PBMC cytokine response assay (IFN-γ and IFN-α in cell-free medium by ELISA), with or without cPLGA; format: cell-based; conditions: donor 110; Table 14
property: IFN-α (pg/mL)

In [3]: df
Out[3]:
                                  substance  measured_on  measured_number
0  (5′-TCGTCGA-3′)2-glycerol-5′-TCGTCGA-3′ [Compound C-28]  human PBMCs               38
1  TMEA-(5′-TGACTGTGAACGTTCGAGATGA-3′)3 (SEQ ID NO: 139) (See Ex. 23) [Compound C-99]  human PBMCs               22
2  5′-TCGTCGA-3′-HEG-5′-ACGTTCG-3′-HEG-5′-AGATGAT-3′ [Compound C-8]  human PBMCs              196
3  5′-TCGTCG-3′-HEG-5′-TCGA-3′ [Compound C-40]  human PBMCs                6
4  5′-TCGACTC-3′-HEG-5′-TCGAGCG-3′-HEG-5′-TTCTCTT-3′ [Compound C-63]  human PBMCs              294

----------
system: human PBMCs; assay: Human PBMC cytokine response assay (IFN-γ and IFN-α in cell-free medium by ELISA), with or without cPLGA; type: cell-based; conditions: Example 58; 4 ug/ml; donor 1
Strand notation (5' to 3'): a small letter for the sugar, then the base; units joined by * are phosphorothioate-linked, units joined directly phosphodiester-linked; [ ] holds rarer units or linkages, { } end groups; capitals alone tell only the bases. d = 2'-deoxy (DNA)
The entries below come with measured IFN-α values attached.

substance	IFN-α / pg/mL
(5′-TCGAACGTTCGA-3′ (SEQ ID NO: 155)-HEG)2-glycerol-HEG-3′-AGCTTGCAAGCT-5′ (SEQ ID NO: 155) (DNA, all phosphorothioate, methylation of C not given here; Three DNA copies joined by HEG spacers and glycerol branching, one copy inverted) [Compound C-174]	5601
5′-TCGAACGTTCGA-3′ (SEQ ID NO: 155) (listed as DNA, chemistry not fully specified) [Compound P-17, reference compound]	9154
5′-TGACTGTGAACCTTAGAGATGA-3′ (SEQ ID NO: 3) (dT*dG*dA*dC*dT*dG*dT*dG*dA*dA*dC*dC*dT*dT*dA*dG*dA*dG*dA*dT*dG*dA) [Compound P-7, negative control, reference compound]	52
(5′-TCGAACGTTCGA-3′ (SEQ ID NO: 155)-HEG)2-glycerol-HEG-5′-TCGAACGTTCGA-3′ (SEQ ID NO: 155) (three copies via HEG-glycerol branching, chemistry not fully specified) [Compound C-173]	3828

----------
tested on: human PBMCs; assay: Human PBMC cytokine response assay (IFN-γ and IFN-α in cell-free medium by ELISA), with or without cPLGA; format: cell-based; conditions: Example 58; 20 ug/ml; donor 2
Strand notation (5' to 3'): a small letter for the sugar, then the base; units joined by * are phosphorothioate-linked, units joined directly phosphodiester-linked; [ ] holds rarer units or linkages, { } end groups; capitals alone tell only the bases. d = 2'-deoxy (DNA)
The entries below come with measured IFN-α values attached.
property: IFN-α (pg/mL)

substance	scale unit	measured number
(5′-TCGACGT-3′-HEG)2-glycerol-HEG-5′-TCGACGT-3′ [Compound C-101]	pg/mL	109
(5′-TCGAACGTTCGA-3′ (SEQ ID NO: 155)-HEG)3-trebler-HEG-5′-T-3′ (three copies HEG-trebler branched, HEG-T, chemistry not fully specified) [Compound C-175]	pg/mL	732
(5′-TCGAACGTTCGA-3′ (SEQ ID NO: 155)-HEG)2-glycerol-HEG-3′-AGCTTGCAAGCT-5′ (SEQ ID NO: 155) (DNA, all phosphorothioate, methylation of C not given here; Three DNA copies joined by HEG spacers and glycerol branching, one copy inverted) [Compound C-174]	pg/mL	1176
5′-TCGAACGTTCGA-3′ (SEQ ID NO: 155) (listed as DNA, chemistry not fully specified) [Compound P-17, reference compound]	pg/mL	1792
(5′-TAGTCAT-3′-HEG)2-glycerol-HEG-5′-AACCTTC-3′ [Compound M-3, reference compound]	pg/mL	52
(5′-TCGAACGTTCGA-3′ (SEQ ID NO: 155)-HEG)2-glycerol-HEG-5′-TCGAACGTTCGA-3′ (SEQ ID NO: 155) (three copies via HEG-glycerol branching, chemistry not fully specified) [Compound C-173]	pg/mL	8060
5′-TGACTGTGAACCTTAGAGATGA-3′ (SEQ ID NO: 3) (dT*dG*dA*dC*dT*dG*dT*dG*dA*dA*dC*dC*dT*dT*dA*dG*dA*dG*dA*dT*dG*dA) [Compound P-7, negative control, reference compound]	pg/mL	52

----------
system: human PBMCs; assay: Human PBMC cytokine response assay (IFN-γ and IFN-α in cell-free medium by ELISA), with or without cPLGA; type: cell-based; conditions: Table 9; donor 28090
Strand notation (5' to 3'): a small letter for the sugar, then the base; units joined by * are phosphorothioate-linked, units joined directly phosphodiester-linked; [ ] holds rarer units or linkages, { } end groups; capitals alone tell only the bases. d = 2'-deoxy (DNA)
The entries below come with measured IFN-γ values attached.

substance	scale unit	IFN-γ
5′-TCGTCGA-3′-HEG-5′-TCGTCGA-3′-HEG-5′-TCGTCGA-3′ [Compound C-21]	pg/mL	68
5′-TCGTCGA-3′- C3-5′-ACGTTCG-3′-C3-5′-AGATGAT-3′ [Compound C-9]	pg/mL	7
HEG-5′-TCGTCG-3′-HEG-5′-ACGTTCG-3′-HEG-5′-AGATGAT-3′-TEG (phosphodiester linkages) [Compound C-31]	pg/mL	0
(5′-TCGTCGA-3′-HEG)2-glycerol-HEG-5′-TCGTCGA-3′ (phosphodiester) [Compound C-93]	pg/mL	0
5′-TCGTCGA-3′-HEG-5′-ACGTTCG-3′-HEG-5′-AGATGAT-3′ [Compound C-8]	pg/mL	52
HEG-5′-TCGTCG-3′-HEG-5′-ACGTTCG-3′-HEG-5′-AGATGAT-3′-TEG [Compound C-30]	pg/mL	6
5′-TCGTCG-3′-HEG-5′-ACGTTCG-3′-HEG-5′-AGATGAT-3′-TEG [Compound C-29]	pg/mL	50
5′-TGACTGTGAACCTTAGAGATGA-3′ (SEQ ID NO: 3) (dT*dG*dA*dC*dT*dG*dT*dG*dA*dA*dC*dC*dT*dT*dA*dG*dA*dG*dA*dT*dG*dA) [Compound P-7, negative control, reference compound]	pg/mL	4
5′-TCGTCG-3′-HEG-5′-ACGTTCG-3′-HEG-5′-AGATGAT-3′ [Compound C-10]	pg/mL	44
5′-TCGTCG-3′-HEG-5′-TCGTCG-3′-HEG-5′-TCGTCG-3′ [Compound C-22]	pg/mL	15
5′-TCGTCGA-3′-C3-5′-TCGTCGA-3′-C3-5′-TCGTCGA-3′ all phosphorothioate linkages [Compound C-33]	pg/mL	0
(5′-TCGTCGA-3′)2-glycerol-5′-TCGTCGA-3′ [Compound C-28]	pg/mL	15

----------
system: human PBMCs; assay: Human PBMC cytokine response assay (IFN-γ and IFN-α in cell-free medium by ELISA), with or without cPLGA; format: cell-based; conditions: Example 59; 0.8 ug/ml; mean of four donors
Strand notation (5' to 3'): a small letter for the sugar, then the base; units joined by * are phosphorothioate-linked, units joined directly phosphodiester-linked; [ ] holds rarer units or linkages, { } end groups; capitals alone tell only the bases. d = 2'-deoxy (DNA)
property: IFN-α mean (pg/mL)

substance	measured on	measured number
(5′-TCGACGT-HEG)2-glycerol-HEG-5′-ACTTAGAGGTTCAGTAGG-3′ (SEQ ID NO: 157) (DNA, all phosphorothioate, methylation of C not given here; Two heptamer DNA arms joined by HEG spacers and glycerol branching to the chain) [Compound C-202]	human PBMCs	284
(5′-TCGACGT-3′-HEG)2-glycerol-HEG-5′-TCGACGT-3′ [Compound C-101]	human PBMCs	123
(5′-TCGACGT-HEG)2-glycerol-HEG-5′-TTGGCCAAGCTTGGCCAA (SEQ ID NO: 116) (DNA, all phosphorothioate, methylation of C not given here; Two heptamer DNA arms joined by HEG spacers and glycerol branching to the chain) [Compound C-178]	human PBMCs	434
5′-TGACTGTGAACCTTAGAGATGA-3′ (SEQ ID NO: 3) (dT*dG*dA*dC*dT*dG*dT*dG*dA*dA*dC*dC*dT*dT*dA*dG*dA*dG*dA*dT*dG*dA) [Compound P-7, negative control, reference compound]	human PBMCs	102
(5′-TCGACGT-HEG)2-glycerol-HEG-5′-CCTACTGAACCTCTAAGT-3′ (SEQ ID NO: 158) (DNA, all phosphorothioate, methylation of C not given here; Two heptamer DNA arms joined by HEG spacers and glycerol branching to the chain) [Compound C-203]	human PBMCs	102
(5′-TAGTCAT-3′-HEG)2-glycerol-HEG-5′-AACCTTC-3′ [Compound M-3, reference compound]	human PBMCs	102
